Test system: PPARg DBDmut IVT, anti-PPARg (DBD mutation: PPARg1 K132A/R137A, NR concentration 270 nM)
Assay: PBM binding z-score (relative to random genomic background probes); higher = stronger binding; sequences stand for … in GC…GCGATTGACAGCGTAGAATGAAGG
Short version: PBM binding z-score at least 0.2 is label 1, less is label 0.

Examples from the recorded data:
INSERT INTO results (seq_string, category) VALUES
  ('CTAGACAGGTGAGAAGGTAACTCAGCCTCGATTA', 'label 0'),
  ('CGTCCAAGGTCAATGCTAGGTCAATGAAAGCATT', 'label 1'),
  ('CGTCCAAGGTCAGAGGGGTCAGTGAATGCCGAGT', 'label 0'),
  ('TCCAGTAGGTTAGTCGGGGCATTCAGCCAACATA', 'label 0'),
  ('TCTTGTATATCAACAGGAGGTTAAGAAAGATCGA', 'label 1');

Read the next record carefully.
Kindly determine if PBM binding z-score recorded for CGTCGAAGTTCAAGGTAACGTAACAGAAAGCAGC is above or exactly 0.2. label 0

---

Tested on: PPARa:RXRa (NR concentration 270 nM, RXRa partner concentration 90 nM)
Assay: PBM binding z-score (relative to random genomic background probes); higher = stronger binding; sequences stand for … in GC…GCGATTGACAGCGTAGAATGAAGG
METRIC NAME: PBM binding z-score
Just the number, please.

Worked cases, PBM binding z-score given:
INSERT INTO assay_data (seq_string, target_or_system, reported_measurement) VALUES
  ('TCTTGTAGATCAAGCAGCTTAAGAAAGCCTGAGT', 'PPARa:RXRa (NR concentration 270 nM, RXRa partner concentration 90 nM)', 0.29),
  ('GCTAGTTGGTCAGTAAAAGGTCACGCACCGGTCG', 'PPARa:RXRa (NR concentration 270 nM, RXRa partner concentration 90 nM)', 4.73),
  ('AGAATGAGGTTATACGTAGATCACGGAAGAAAGT', 'PPARa:RXRa (NR concentration 270 nM, RXRa partner concentration 90 nM)', 3.03),
  ('CATACTGGGCCAAGGTCATTGATCAGTCAAAGCA', 'PPARa:RXRa (NR concentration 270 nM, RXRa partner concentration 90 nM)', 4.12),
  ('CGTCCAAGGTCAATGGTCAGTGAAGAGATGACGG', 'PPARa:RXRa (NR concentration 270 nM, RXRa partner concentration 90 nM)', 4.93);

Field: next sequence
Per the records, this sequence ( ATCTCAAGGTAAGACTCAGTTCAGTGAAGAACGC ) has PBM binding z-score equal to 0.216

---

Below, each of the sequences is paired with its reported PBM binding z-score value.
System: FXR:RXRa (NR concentration 270 nM, RXRa partner concentration 90 nM)
Test: PBM binding z-score (relative to random genomic background probes); higher = stronger binding; sequences stand for … in GC…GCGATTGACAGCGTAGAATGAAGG
Just the number, please.

Worked cases, PBM binding z-score given:
INSERT INTO assay_data (seq_string, reported_measurement) VALUES
  ('GGAACGAGGGCAATTTGATAGCAGAGTTTGATGG', 0.502),
  ('ATCTCTAGGTAAGGATAGTTCAGTGAATGCAAAT', 0.343);

Per the records, this sequence ( CCTGCTAGGGCAATGGTCAGCTAAAGCAGCTCGC ) has PBM binding z-score equal to -0.321

Per the records, this sequence ( CCAGACAGGTGAGAAGGTAACCCAGCCTCGATTA ) has PBM binding z-score equal to 0.179

Per the records, this sequence ( ACTCGGAGGACAAAGGTCAGAGCAACGCCAGTGA ) has PBM binding z-score equal to 4.23

Per the records, this sequence ( CGAACCAGGTCAAGGACAGTGAATCTCCGCACGC ) has PBM binding z-score equal to 4.75

Data provenance: the supplement of paper PMC6555819
